- TESTED TARGET: UniProtKB Q9NR97
- Sequence (Q9NR97 27-1041): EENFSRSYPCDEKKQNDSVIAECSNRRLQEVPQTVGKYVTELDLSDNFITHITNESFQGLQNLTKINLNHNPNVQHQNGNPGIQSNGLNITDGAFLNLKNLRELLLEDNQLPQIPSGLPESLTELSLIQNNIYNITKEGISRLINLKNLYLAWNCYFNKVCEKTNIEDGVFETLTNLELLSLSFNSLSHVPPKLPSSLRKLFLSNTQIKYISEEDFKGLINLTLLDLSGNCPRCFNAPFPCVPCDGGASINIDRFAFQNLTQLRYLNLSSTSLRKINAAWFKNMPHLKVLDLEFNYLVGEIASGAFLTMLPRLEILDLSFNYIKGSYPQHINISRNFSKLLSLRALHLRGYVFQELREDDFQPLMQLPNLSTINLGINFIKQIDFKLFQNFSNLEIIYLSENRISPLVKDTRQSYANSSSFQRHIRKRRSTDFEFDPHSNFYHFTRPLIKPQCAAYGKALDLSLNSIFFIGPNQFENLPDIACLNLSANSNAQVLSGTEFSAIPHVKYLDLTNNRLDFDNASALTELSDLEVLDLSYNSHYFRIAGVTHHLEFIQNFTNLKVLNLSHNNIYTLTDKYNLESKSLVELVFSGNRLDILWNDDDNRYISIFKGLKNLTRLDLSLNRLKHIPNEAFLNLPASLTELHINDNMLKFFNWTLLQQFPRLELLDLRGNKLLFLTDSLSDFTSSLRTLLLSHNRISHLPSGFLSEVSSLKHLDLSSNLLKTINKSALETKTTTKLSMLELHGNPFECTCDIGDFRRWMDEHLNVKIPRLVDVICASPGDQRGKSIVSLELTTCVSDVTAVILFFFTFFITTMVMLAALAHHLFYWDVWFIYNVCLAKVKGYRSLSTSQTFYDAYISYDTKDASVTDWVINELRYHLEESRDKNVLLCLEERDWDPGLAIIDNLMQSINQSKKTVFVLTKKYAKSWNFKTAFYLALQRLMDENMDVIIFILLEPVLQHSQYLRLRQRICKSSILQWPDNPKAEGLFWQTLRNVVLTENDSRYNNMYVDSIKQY
- ASSAY EXPLANATION: HEK293-Blue-hTLR-8 cells assay (SEAP reporter, R848 stimulation)
- PROTOCOL CONDITIONS: HEK293-Blue-hTLR8 cells, R848 ligand, 20 hrs incubation, antagonist
OBSERVED PROPERTY: IC50

Find IC50 (UniProtKB Q9NR97) for the entry C[C@@H]1CN(c2ccc(C#N)c3ncsc23)C[C@H](CN2CCC3(CCNC3)CC2)O1 [Example 6] 22 nM

Would you kindly repeat that for C[C@@H]1CN(c2ccc(C#N)c3ncsc23)C[C@H](CN2CCC3(CCCNC3)C2)O1 (stereo partly shown) [Example 1] ? < 3 nM

Would you kindly repeat that for C[C@@H]1CN(c2ccc(C#N)c3ncsc23)C[C@H](C(=O)NCC2CN(C)CCO2)O1 (stereo partly shown) [Example 12] ? < 3 nM

Would you kindly repeat that for C[C@@H]1CN(c2ccc(C#N)c3ncsc23)C[C@H](CN2CCC(N3CCCCC3)CC2)O1 [Example 7] ? < 3 nM
